Assay: A quantitative high throughput screen for small molecules that induce DNA re-replication in MCF 10a normal breast cells. Note: nearly all actives have a fitted effect of over 50% in size.
Conditions: MCF 10A DNA re-replication, Hoechst nuclear intensity, 48 h; series mostly up to 46.1 µM
In all, about 350,000 compounds went through this assay and about 9,900 (2.8%) were called active. Not shown: some 15% with an inconclusive outcome. Calls come from the whole dose curve; as a rule, active = well fitted activation curve with a large enough effect; inconclusive = small, poorly fitted or top-dose-only effect; inactive = no such curve, though single readings can be large or run the other way. Shown is part of a subset that was picked to be rich in actives.
I would appreciate it if you answered using one of these outcomes: active, inactive

Can you look up the reported call for CCOC(=O)/C(=C\c1ccc([N+](=O)[O-])cc1)C(=O)c1cc(C(C)=O)c(Nc2ccccc2)s1 for me?
active

Let us now turn to O=C(Nc1ccccc1)/C(=C/c1ccc([N+](=O)[O-])cc1)NC(=O)c1ccccc1
inactive

Let us now turn to O=C(CSc1ncn[nH]1)Nc1ccc(Br)cc1Br
inactive

Let us now turn to CCC1([N+](=O)[O-])COC(c2ccc(C(C)C)cc2)OC1 (stereo not given)
inactive

Let us now turn to O=[N+]([O-])c1cccc(C=NN=Cc2ccccc2O)c1
inactive

Cited source: PubChem BioAssay AID624296
